Ref: patent US20170216240A1

target: Kv7.1/KCNE1 (Homo sapiens, UniProt P51787); construct: expressed in transfected cells; host or cells: Xenopus laevis oocytes (cRNA co-injection); assay: G(V) shift of Kv7.1 co-expressed with KCNE1 in Xenopus oocytes, two-electrode voltage-clamp; assay type: cell-based; settings: human, Xenopus oocytes co-expressing human Kv7.1 and KCNE1; Kv7.1/KCNE1; 70 μM; read-out: apparent pKa (pH of c0.5)
Recorded pKa, one value per entry.
Lab note: write the figure by itself, no unit.

CC/C=C\C/C=C\C/C=C\C/C=C\C/C=C\C/C=C\CCC(=O)O	8.5

Consider now this further compound.
input: What does the record list as pKa for CC/C=C\C/C=C\C/C=C\C/C=C\C/C=C\C/C=C\CCC(=O)NCC(=O)O ?
output: 6.9
